Target: rBIIA isoform of Na+ channels (Rattus norvegicus, UniProt P04775)
Experiment: Electrophysiological Assay 2: whole-cell patch-clamp of Na+ currents in HEK-293 cells expressing rBIIA
Conditions: HEK-293 cells stably expressing the rBIIA isoform of Na+ channels; read-out: apparent antagonist dissociation constant (Kd) for inactivated sodium channels

compound: Cl.Fc1ccc(Oc2ccc(-c3c[nH]cn3)cc2F)cc1 [hydrochloride salt]
Kd: 250 nM

----------
Biological target: hSkM1 isoform of Na+ channels (Homo sapiens, UniProt P35499)
Sequence (P35499 whole entry, canonical isoform): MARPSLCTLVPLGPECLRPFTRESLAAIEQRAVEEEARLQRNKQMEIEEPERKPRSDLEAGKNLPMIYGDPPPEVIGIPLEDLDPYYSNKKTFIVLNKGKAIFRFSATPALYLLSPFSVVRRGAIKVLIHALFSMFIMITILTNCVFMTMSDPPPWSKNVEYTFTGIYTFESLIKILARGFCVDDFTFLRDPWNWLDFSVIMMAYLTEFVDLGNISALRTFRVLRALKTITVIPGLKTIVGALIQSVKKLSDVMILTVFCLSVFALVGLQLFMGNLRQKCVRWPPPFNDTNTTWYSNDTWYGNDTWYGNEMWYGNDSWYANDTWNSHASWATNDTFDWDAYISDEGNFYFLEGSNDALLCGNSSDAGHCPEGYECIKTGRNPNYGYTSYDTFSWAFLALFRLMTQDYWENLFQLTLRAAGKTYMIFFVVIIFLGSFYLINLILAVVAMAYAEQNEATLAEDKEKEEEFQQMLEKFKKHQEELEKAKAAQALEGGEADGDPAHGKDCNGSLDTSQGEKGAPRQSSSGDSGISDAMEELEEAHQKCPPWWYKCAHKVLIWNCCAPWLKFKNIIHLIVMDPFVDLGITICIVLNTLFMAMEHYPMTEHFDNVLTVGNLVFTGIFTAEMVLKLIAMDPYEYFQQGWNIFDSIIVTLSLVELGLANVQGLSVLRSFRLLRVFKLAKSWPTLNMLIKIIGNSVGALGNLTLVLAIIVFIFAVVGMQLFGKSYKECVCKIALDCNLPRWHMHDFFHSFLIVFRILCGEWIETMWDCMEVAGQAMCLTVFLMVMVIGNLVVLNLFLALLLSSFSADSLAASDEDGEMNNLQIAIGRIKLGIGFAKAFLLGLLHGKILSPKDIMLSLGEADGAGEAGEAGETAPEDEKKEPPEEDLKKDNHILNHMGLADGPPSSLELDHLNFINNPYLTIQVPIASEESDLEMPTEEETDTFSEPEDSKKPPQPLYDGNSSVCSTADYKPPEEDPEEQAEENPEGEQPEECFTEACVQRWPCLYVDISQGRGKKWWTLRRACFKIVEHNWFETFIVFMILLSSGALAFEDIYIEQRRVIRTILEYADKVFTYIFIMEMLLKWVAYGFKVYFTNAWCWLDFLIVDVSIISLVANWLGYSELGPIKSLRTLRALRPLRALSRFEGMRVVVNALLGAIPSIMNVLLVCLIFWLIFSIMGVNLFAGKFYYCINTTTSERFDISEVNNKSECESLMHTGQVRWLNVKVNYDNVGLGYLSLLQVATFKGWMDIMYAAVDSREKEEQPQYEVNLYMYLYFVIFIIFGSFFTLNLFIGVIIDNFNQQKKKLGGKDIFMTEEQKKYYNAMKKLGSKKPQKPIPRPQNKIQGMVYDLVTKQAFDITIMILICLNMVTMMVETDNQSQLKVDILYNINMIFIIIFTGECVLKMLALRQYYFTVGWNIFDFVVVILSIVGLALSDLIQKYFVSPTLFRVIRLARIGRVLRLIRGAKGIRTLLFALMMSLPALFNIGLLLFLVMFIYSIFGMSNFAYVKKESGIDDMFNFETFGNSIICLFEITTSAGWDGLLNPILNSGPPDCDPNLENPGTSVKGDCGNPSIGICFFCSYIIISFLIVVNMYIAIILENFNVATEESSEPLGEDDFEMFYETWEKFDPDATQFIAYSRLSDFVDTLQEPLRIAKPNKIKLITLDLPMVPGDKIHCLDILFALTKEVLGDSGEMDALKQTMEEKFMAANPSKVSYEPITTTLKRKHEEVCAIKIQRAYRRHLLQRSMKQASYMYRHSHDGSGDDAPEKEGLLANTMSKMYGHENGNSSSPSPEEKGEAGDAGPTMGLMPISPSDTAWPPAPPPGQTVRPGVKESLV
Assay: Electrophysiological Assay 1: whole-cell patch-clamp of Na+ currents in HEK-293 cells expressing hSkM1
Conditions: HEK-293 cells stably expressing hSkM1 sodium channels; read-out: apparent antagonist dissociation constant (Kd) for inactivated sodium channels
test.readout: Kd

chemical.string: NC(=O)n1ccc(-c2ccc(Oc3ccc(F)cc3)cc2)n1
result.value: ~8 nM

----------
Biological target: rBIIA isoform of Na+ channels (Rattus norvegicus)
Assay: Electrophysiological Assay 2: whole-cell patch-clamp of Na+ currents in HEK-293 cells expressing rBIIA
Conditions: HEK-293 cells stably expressing rBIIA; concentration that produces half maximal inhibition
Procedure: Cell preparation: HEK-293 (NaIIA-B2) cell line stably expressing the rBIIA isoform of Na^+ channels was established in-house. The cells were cultured using standard techniques, as described previously (Verdoorn, T. A, et al., Neuron 4:919-928 (1990)). For electrophysiology, cells were plated onto poly-D-lysine pre-coated Cellware 35 mm Petri dishes (BIOCOAT, Becton Dickinson) at a density of ˜10^4 cells/dish on the day of re-seeding from confluent cultures. […]
pKi: −log10 of the molar value.

compound: Cl.Fc1cc(Cl)ccc1Oc1ccc(-c2c[nH]cn2)cc1 [hydrochloride salt]
measurement.target: rBIIA isoform of Na+ channels (Rattus norvegicus)
pKi: 6.92
//
compound: Fc1ccc(Oc2ccc(-c3ccn(-c4ncccn4)n3)cc2)cc1
measurement.target: rBIIA isoform of Na+ channels (Rattus norvegicus)
pKi: 6.38
//
compound: Cl.Fc1ccc(Oc2ccc(-c3c[nH]cn3)cc2F)cc1 [hydrochloride salt]
measurement.target: rBIIA isoform of Na+ channels (Rattus norvegicus)
pKi: 6.60
//
compound: Fc1ccc(Oc2ccc(-c3ncc[nH]3)cc2)cc1
measurement.target: rBIIA isoform of Na+ channels (Rattus norvegicus)
pKi: 5.96
//
compound: Fc1ccc(Oc2ccc(-c3c[nH]cn3)cc2)c(F)c1
measurement.target: rBIIA isoform of Na+ channels (Rattus norvegicus)
pKi: 5.99
//
compound: NC(=O)Cn1nccc1-c1ccc(Oc2ccc(F)cc2)cc1
measurement.target: rBIIA isoform of Na+ channels (Rattus norvegicus)
pKi: 5.81
//
compound: NC(=O)c1coc(-c2ccc(Oc3ccc(F)cc3)cc2)n1
measurement.target: rBIIA isoform of Na+ channels (Rattus norvegicus)
pKi: 5.88

----------
Listing of entries alongside the reported melting point.
Structures can show the parent of a compound that is named as a salt.
test.readout: melting point

compound: NC(=O)n1ccc(-c2ccc(Oc3ccc(C(F)(F)F)cc3)cc2)n1
test.readout: melting point
result.value: 131 to 132 °C
//
compound: Cl.Fc1cc(Cl)ccc1Oc1ccc(-c2c[nH]cn2)cc1
test.readout: melting point
result.value: 216 to 220 °C
//
compound: NC(=O)n1ccc(-c2ccc(Oc3ccc(Cl)cc3F)cc2)n1
test.readout: melting point
result.value: 150 to 151 °C
//
compound: Fc1ccc(Oc2ccc(-c3c[nH]cn3)cc2)c(F)c1 (as salt: hydrochloride)
test.readout: melting point
result.value: 192 to 195 °C
//
compound: Cl.FC(F)(F)c1ccc(Oc2ccc(-c3c[nH]cn3)cc2)cc1
test.readout: melting point
result.value: 230 to 232 °C
//
compound: Fc1ccc(Oc2ccc(-c3c[nH]cn3)cc2)c(F)c1
test.readout: melting point
result.value: 144 to 148 °C
//
compound: O=C(Cn1nccc1-c1ccc(Oc2ccc(F)cc2)cc1)N1CCOCC1
test.readout: melting point
result.value: 122 to 124 °C
//
compound: CSc1cc(-c2ccc(Oc3ccccc3)cc2)nn1C(N)=O
test.readout: melting point
result.value: 142 to 144 °C
